TARGET OF ASSAY: Human immunodeficiency virus type 1 reverse transcriptase (Human immunodeficiency virus 1)
ASSAY PROCEDURE: Inhibition of HIV-1 recombinant reverse transcriptase
pIC50: −log10 of the molar value.
Class met: pIC50 at least 5. Class not met: pIC50 below 5.

Request: Given Nc1ccc(Cl)cc1S(=O)(=O)n1ccc(C(O)c2ccccc2)c1 (stereo unspecified) , state whether its pIC50 is at least 5.
Response: not met

Request: Determine whether this compound has pIC50 no lower than 5: CC(C)c1ccc(S(=O)(=O)n2ccc(C(O)c3ccc(Cl)cc3Cl)c2)cc1 (stereo unspecified)
Response: met

Request: Decide: is the reported value of pIC50 for Cc1ccc(C(O)c2ccn(S(=O)(=O)c3ccc(C)cc3)c2)cc1 (stereo unspecified) equal to or greater than 5?
Response: met

Request: // inclusive: pIC50 at least 5? input: O=S(=O)(c1ccccc1)n1ccc(C(O)c2ccccc2Cl)c1 (stereo unspecified)
Response: not met

Request: Check if pIC50 >= 5 (inclusive). Item: O=S(=O)(c1ccc(Cl)cc1)n1ccc(C(O)c2ccc(Cl)cc2Cl)c1 (stereo unspecified)
Response: not met

Request: Kindly determine if pIC50 recorded for CCc1ccc(S(=O)(=O)n2ccc(C(O)c3ccc(Cl)cc3Cl)c2)cc1 (stereo unspecified) is above or exactly 5.
Response: not met

Request: Identify whether the reported pIC50 of the following compound is 5 or greater: O=S(=O)(c1ccccc1)n1ccc(C(O)c2ccc(Cl)cc2Cl)c1 (stereo unspecified)
Response: not met

====

Test system: Human immunodeficiency virus 1
ASSAY PROCEDURE: Concentration required to achieve 50% protection of MT-4 cells against the cytopathic effect of HIV-1
Format: functional, organism-based
CONDITION INFO: Human immunodeficiency virus 1, MT4
Readings of EC50 for the listed molecules

// worked examples, EC50 included
[
  {
    "MOLECULE": "O=S(=O)(c1ccccc1)n1ccc(C(c2ccc(Cl)cc2Cl)n2ccnc2)c1 (stereo not given)",
    "VALUE MEASURED": "> 14 µM"
  },
  {
    "MOLECULE": "O=C(c1ccccc1)c1ccn(S(=O)(=O)c2ccccc2)c1",
    "VALUE MEASURED": "> 32 µM"
  },
  {
    "MOLECULE": "Cc1ccc(C(c2ccn(S(=O)(=O)c3ccccc3)c2)n2ccnc2)cc1 (stereo not given)",
    "VALUE MEASURED": "> 26 µM"
  },
  {
    "MOLECULE": "COC(c1ccn(S(=O)(=O)c2ccc(C)cc2)c1)c1ccc(Cl)cc1Cl (stereo not given)",
    "VALUE MEASURED": "> 82 µM"
  }
]

With those in mind, consider the next molecule.
The molecule CC(C)OC(=O)c1cc(C(O)c2ccc(Cl)cc2Cl)cn1S(=O)(=O)c1ccc(Cl)cc1 (stereo not given) showed EC50 equal to > 28 µM

====

TARGET OF ASSAY: UniProt Q72547
ASSAY PROCEDURE: Inhibition of HIV-1 recombinant reverse transcriptase
Entries and their IC50
Answer format: numeric, µM implied, no suffix.

Field: example entries. Status: answers known.
[
  {
    "MOLECULE": "CC(C)(C)c1ccc(S(=O)(=O)n2ccc(C(O)c3ccc(Cl)cc3Cl)c2)cc1 (centres undefined)",
    "TARGET OF ASSAY": "UniProt Q72547",
    "IC50 / µM": 6.4
  },
  {
    "MOLECULE": "Cc1ccccc1S(=O)(=O)n1ccc(C(O)c2ccc(Cl)cc2Cl)c1 (centres undefined)",
    "TARGET OF ASSAY": "UniProt Q72547",
    "IC50 / µM": 27
  }
]

Now look at this entry.
Lab note: measured IC50 of Cc1ccc(S(=O)(=O)n2ccc(C(O)c3ccc(Cl)cc3Cl)c2)cc1 (centres undefined) was 18
